Target: zebrafish β3 homopentameric GABAA receptor (Danio rerio, UniProt A0A0R4ILP2)
Construct: homopentamer
Sequence (A0A0R4ILP2 26-498): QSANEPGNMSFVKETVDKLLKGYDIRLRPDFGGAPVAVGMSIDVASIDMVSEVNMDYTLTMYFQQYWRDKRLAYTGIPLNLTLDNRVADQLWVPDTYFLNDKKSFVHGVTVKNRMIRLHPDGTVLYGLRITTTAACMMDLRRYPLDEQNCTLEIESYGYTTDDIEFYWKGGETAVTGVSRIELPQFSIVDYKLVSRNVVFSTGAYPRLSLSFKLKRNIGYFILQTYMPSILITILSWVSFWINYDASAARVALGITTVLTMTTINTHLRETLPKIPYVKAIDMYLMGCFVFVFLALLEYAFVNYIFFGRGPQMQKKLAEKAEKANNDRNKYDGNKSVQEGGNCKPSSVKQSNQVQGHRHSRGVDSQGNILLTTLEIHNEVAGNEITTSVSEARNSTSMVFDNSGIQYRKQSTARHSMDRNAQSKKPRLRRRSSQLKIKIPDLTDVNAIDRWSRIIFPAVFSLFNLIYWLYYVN
Assay: two-electrode voltage clamp, Xenopus oocytes, etomidate-evoked current
reportedProperty: EC50 (µM)
Report the figure in µM without appending any unit label.

Exam item: # input compound: CCOC(=O)c1cncn1[C@H](C)c1ccccc1 [etomidate] ; wanted: its EC50
Marked response: 30.3
